# measurement.target: Scavenger receptor class B member 1 (Mus musculus) (UniProt Q61009)
# Sequence (Q61009 whole entry, looked up): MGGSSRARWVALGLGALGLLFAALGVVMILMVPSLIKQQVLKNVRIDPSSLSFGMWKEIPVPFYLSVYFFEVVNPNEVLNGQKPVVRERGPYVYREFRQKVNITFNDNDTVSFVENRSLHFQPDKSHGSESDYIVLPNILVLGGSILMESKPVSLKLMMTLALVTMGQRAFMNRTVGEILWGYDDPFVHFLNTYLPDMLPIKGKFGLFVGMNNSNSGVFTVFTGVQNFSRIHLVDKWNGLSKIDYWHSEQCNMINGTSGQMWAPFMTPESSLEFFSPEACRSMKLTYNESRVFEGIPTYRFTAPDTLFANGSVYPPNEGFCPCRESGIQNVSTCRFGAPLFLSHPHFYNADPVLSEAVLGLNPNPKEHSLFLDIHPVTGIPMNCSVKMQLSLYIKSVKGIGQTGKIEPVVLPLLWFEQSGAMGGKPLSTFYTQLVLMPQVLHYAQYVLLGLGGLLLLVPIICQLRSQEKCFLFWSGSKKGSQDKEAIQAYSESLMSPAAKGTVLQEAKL
# experiment.notes: enhancers of DiI-HDL lipid transfer via SR-BI – cell-based, ldlA[mSR-BI] CHO, DiI fluorescence, cherry-pick, dose response (AID 602191);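 note: cell fluorescence from internalized DiI-labeled HDL after washing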
# condition.description: ldlA[mSR-BI] CHO cells, DiI-HDL uptake fluorescence, 3 h
Calls of active or inactive are those of the source.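 Rule for the calls: active = fitted curve reaches 40% activation at a concentration no higher than the top valid tested dose; inconclusive = flat fit between 30% and 70% activation, or poor fit; inactive = uptake decrease, flat fit within 30% of zero, the rest.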
Outcome codes: TRUE = active, FALSE = inactive

{"compound": "Cc1c(CCOC(=O)C23CC4(C)CC(C)(CC(C)(C4)C2)C3)sc[n+]1CC(=O)c1ccccc1", "classification": "FALSE"}
{"compound": "NC(=O)c1ncn([C@@H]2O[C@H](CN=C3NS(=O)(=O)c4ccccc43)[C@@H](O)[C@H]2O)n1", "classification": "FALSE"}
{"compound": "C[C@H](CO)N1C[C@H](C)[C@@H](CN(C)S(=O)(=O)c2ccccc2)Oc2ccc(NC(=O)Nc3ccc(C(F)(F)F)cc3)cc2C1=O", "classification": "TRUE"}
{"compound": "CCOC(=O)C(NC(=O)CC(C)C)(Nc1sc2c(c1C(N)=O)CCCC2)C(F)(F)F (centres undefined)", "classification": "FALSE"}

====

# measurement.target: Scavenger receptor class B member 1 (Mus musculus) (UniProt Q61009)
# experiment.notes: enhancers of DiI-HDL lipid transfer via SR-BI – cell-based, ldlA[mSR-BI] CHO, DiI fluorescence, cherry-pick, dose response (AID 602191);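 note: cell fluorescence from internalized DiI-labeled HDL after washing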;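 for activation (HDL uptake increase): 0% = median of DMSO wells and 100% = twice the DMSO signal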
# condition.description: ldlA[mSR-BI] CHO cells, 3 h, at 35 µM (top of the series)

{"compound": "COC1CCCN(Cc2c(C(=O)N3CCN(C4CCCCC4)CC3)nc3ccccn23)C1 (configuration not stated)", "measurement.target": "Scavenger receptor class B member 1 (Mus musculus) (UniProt Q61009)", "result.unit": "%", "activation (HDL uptake increase)": -7.41}
{"compound": "O=C(OCCc1cc2ccccc2c(=O)o1)c1ccco1", "measurement.target": "Scavenger receptor class B member 1 (Mus musculus) (UniProt Q61009)", "result.unit": "%", "activation (HDL uptake increase)": -0.117}
{"compound": "O=C1CCC(=O)N1c1ccc(S(=O)(=O)Nc2cccc(Br)c2)cc1", "measurement.target": "Scavenger receptor class B member 1 (Mus musculus) (UniProt Q61009)", "result.unit": "%", "activation (HDL uptake increase)": -7.52}
{"compound": "Cc1cccc(C)c1NC(=O)N1C2CCCC1CC(NC(=O)C(C)(C)C)C2 (configuration not stated)", "measurement.target": "Scavenger receptor class B member 1 (Mus musculus) (UniProt Q61009)", "result.unit": "%", "activation (HDL uptake increase)": 5.39}
{"compound": "COc1ccc(C(=O)NNS(=O)(=O)c2ccccc2)cc1OC", "measurement.target": "Scavenger receptor class B member 1 (Mus musculus) (UniProt Q61009)", "result.unit": "%", "activation (HDL uptake increase)": -10.5}
{"compound": "Cc1ccc(CS(=O)Cc2ccc(C(=O)NCc3ccccc3)o2)cc1 (configuration not stated)", "measurement.target": "Scavenger receptor class B member 1 (Mus musculus) (UniProt Q61009)", "result.unit": "%", "activation (HDL uptake increase)": 4.99}
{"compound": "C[C@H](CO)N1C[C@H](C)[C@H](CN(C)Cc2ccc(-c3ccccc3)cc2)Oc2ccc(NS(=O)(=O)c3ccccc3)cc2CC1=O", "measurement.target": "Scavenger receptor class B member 1 (Mus musculus) (UniProt Q61009)", "result.unit": "%", "activation (HDL uptake increase)": 44.6}
{"compound": "Cc1c(C)c2ccc(OCC(=O)NC(Cc3c[nH]c4ccc(O)cc34)C(=O)O)c(C)c2oc1=O (configuration not stated)", "measurement.target": "Scavenger receptor class B member 1 (Mus musculus) (UniProt Q61009)", "result.unit": "%", "activation (HDL uptake increase)": -0.695}
{"compound": "CC1CCCC(NC(=O)COC(=O)c2ccc3ccccc3n2)C1C (configuration not stated)", "measurement.target": "Scavenger receptor class B member 1 (Mus musculus) (UniProt Q61009)", "result.unit": "%", "activation (HDL uptake increase)": -7.88}
{"compound": "COc1ccc2c(c1OC)C(=O)OC2CC(=O)O (configuration not stated)", "measurement.target": "Scavenger receptor class B member 1 (Mus musculus) (UniProt Q61009)", "result.unit": "%", "activation (HDL uptake increase)": 3.81}
{"compound": "CCOc1ccc(CNC(=O)CCS(=O)(=O)c2ccc3c(c2)oc(=O)n3C)cc1", "measurement.target": "Scavenger receptor class B member 1 (Mus musculus) (UniProt Q61009)", "result.unit": "%", "activation (HDL uptake increase)": 8.83}
{"compound": "Cc1ccc(S(=O)(=O)N2CCC(=O)N(CCOCc3cccc(F)c3)CC2)cc1", "measurement.target": "Scavenger receptor class B member 1 (Mus musculus) (UniProt Q61009)", "result.unit": "%", "activation (HDL uptake increase)": 5.46}
{"compound": "O=C(CN1C(=O)NC2(CCCC2)C1=O)Nc1ccc(Cl)c(C(F)(F)F)c1", "measurement.target": "Scavenger receptor class B member 1 (Mus musculus) (UniProt Q61009)", "result.unit": "%", "activation (HDL uptake increase)": -11.2}
{"compound": "CNC(=O)c1ccc(N(Cc2ccccc2C)S(C)(=O)=O)cc1", "measurement.target": "Scavenger receptor class B member 1 (Mus musculus) (UniProt Q61009)", "result.unit": "%", "activation (HDL uptake increase)": -9.16}
{"compound": "CN(C)c1nc(C#N)nc(N2CCOCC2)n1", "measurement.target": "Scavenger receptor class B member 1 (Mus musculus) (UniProt Q61009)", "result.unit": "%", "activation (HDL uptake increase)": 4.22}
{"compound": "CC(C)CC(CO)N1CCN(C(=O)c2cccc(C(F)(F)F)c2)CCC1=O (configuration not stated)", "measurement.target": "Scavenger receptor class B member 1 (Mus musculus) (UniProt Q61009)", "result.unit": "%", "activation (HDL uptake increase)": -7.8}
{"compound": "COCCN(CC(=O)Nc1cc(Cl)ccc1-n1cncn1)Cc1nc2ccccc2c(=O)[nH]1", "measurement.target": "Scavenger receptor class B member 1 (Mus musculus) (UniProt Q61009)", "result.unit": "%", "activation (HDL uptake increase)": -4.92}
{"compound": "CCOc1ccc(S(=O)(=O)NCCc2cn3ccccc3n2)cc1", "measurement.target": "Scavenger receptor class B member 1 (Mus musculus) (UniProt Q61009)", "result.unit": "%", "activation (HDL uptake increase)": 2.16}
{"compound": "CCc1nn(CC(=O)N2CCN(CC)CC2)c(=O)c2cccn12", "measurement.target": "Scavenger receptor class B member 1 (Mus musculus) (UniProt Q61009)", "result.unit": "%", "activation (HDL uptake increase)": -9.62}
{"compound": "COc1ccc(OC)c(NC(=O)c2c(NC(=O)CCC(=O)O)sc3c2CCCCC3)c1", "measurement.target": "Scavenger receptor class B member 1 (Mus musculus) (UniProt Q61009)", "result.unit": "%", "activation (HDL uptake increase)": -20.2}
{"compound": "COCCCNC(=O)C1CCC(CNS(=O)(=O)c2ccc3c(c2)N(C(C)=O)CCO3)CC1 (configuration not stated)", "measurement.target": "Scavenger receptor class B member 1 (Mus musculus) (UniProt Q61009)", "result.unit": "%", "activation (HDL uptake increase)": 7.18}
{"compound": "COc1ccc(NC(=O)COC(=O)c2cc(SC)ccc2Cl)c(OC)c1", "measurement.target": "Scavenger receptor class B member 1 (Mus musculus) (UniProt Q61009)", "result.unit": "%", "activation (HDL uptake increase)": -14.1}
